// provenance: paper PMC11396129

Test system: NCI-H23
assay-info: NCI 60 panel growth inhibition (SRB), non-small cell lung cancer
Type: cell-based, human
test-context: NCI-H23, 10 μM
# maps each entry to its GI%
Respond with the bare value in %.

{"compound": "COc1cccc(-c2nc3ccccc3s2)c1OCC(=O)NN=C1C(=O)Nc2ccc([N+](=O)[O-])cc21", "GI% (%)": 22.82}
{"compound": "COc1ccc2c(c1)C(=NNC(=O)COc1cc(-c3nc4ccccc4s3)ccc1OC)C(=O)N2", "GI% (%)": 84.74}

Lookup: # GI% lookup, item `COc1ccc(-c2nc3ccccc3s2)cc1OCC(=O)NN=C1C(=O)Nc2ccccc21`
Found: 14.06

Lookup: GET /values?readout=GI%&item= `COc1ccc(-c2nc3ccccc3s2)cc1OCC(=O)NN=C1C(=O)Nc2ccc(Cl)cc21`
Found: 42.70

Lookup: I have this compound here, CNC(=O)c1nn(C)c2c1C(C)(C)Cc1cnc(Nc3ccc(N4CCN(C)CC4)cc3)nc1-2 [Milciclib, reference compound] , and I need its recorded GI%.
Found: 97.60

Lookup: So what does the record say about GI% for `COc1cccc(-c2nc3ccccc3s2)c1OCC(=O)NN=C1C(=O)Nc2ccccc21` ?
Found: 25.24

Lookup: # get_value(readout='GI%', item= `COc1ccc(-c2nc3ccccc3s2)cc1OCC(=O)NN=C1C(=O)Nc2ccc(C)cc21` )
Found: 12.32

Lookup: Form field: reported GI% of `COc1ccc2c(c1)C(=NNC(=O)COc1ccccc1-c1nc3ccccc3s1)C(=O)N2`
Found: 17.94

Lookup: Name the reported GI% value associated with the compound `COc1cccc(-c2nc3ccccc3s2)c1OCC(=O)NN=C1C(=O)Nc2ccc(Cl)cc21`
Found: 17.71

Lookup: Can you share its GI%? I mean this compound: `COc1ccc(-c2nc3ccccc3s2)cc1OCC(=O)NN=C1C(=O)Nc2ccc(Br)cc21`
Found: 20.81

Lookup: Form field: reported GI% of `COc1cccc(-c2nc3ccccc3s2)c1OCC(=O)NN=C1C(=O)Nc2ccc(Br)cc21`
Found: 17.03

Lookup: # get_value(readout='GI%', item= `COc1ccc2c(c1)C(=NNC(=O)COc1c(OC)cccc1-c1nc3ccccc3s1)C(=O)N2` )
Found: 11.65

Lookup: # GI% lookup, item `COc1cccc(-c2nc3ccccc3s2)c1OCC(=O)NN=C1C(=O)Nc2ccc(C)cc21`
Found: 13.40

Lookup: I have this compound here, `COc1ccc(-c2nc3ccccc3s2)cc1OCC(=O)NN=C1C(=O)Nc2ccc([N+](=O)[O-])cc21` , and I need its recorded GI%.
Found: 47.90

Lookup: Request the reported GI% associated with `O=C(COc1ccccc1-c1nc2ccccc2s1)NN=C1C(=O)Nc2ccc(Cl)cc21`
Found: 7.05

Lookup: Could you tell me which GI% is on file for `Cc1ccc2c(c1)C(=NNC(=O)COc1ccccc1-c1nc3ccccc3s1)C(=O)N2` ?
Found: 85.13

Lookup: Entry `O=C(COc1ccccc1-c1nc2ccccc2s1)NN=C1C(=O)Nc2ccc(Br)cc21` has what GI%?
Found: 40.56

* * *

System: SW-620
assay-info: NCI 60 panel growth inhibition (SRB), colon cancer
Assay type: cell-based, human
test-context: SW-620, 10 μM
Entries and their GI% values follow.
Form entry: value (%) — number only.

Example results:
{"compound": "COc1ccc(-c2nc3ccccc3s2)cc1OCC(=O)NN=C1C(=O)Nc2ccc(C)cc21 [Compound 9n]", "target-desc": "SW-620", "test-value": 6.33}
{"compound": "COc1ccc(-c2nc3ccccc3s2)cc1OCC(=O)NN=C1C(=O)Nc2ccc(Cl)cc21 [Compound 9q]", "target-desc": "SW-620", "test-value": 51.82}

Next:
Lookup: Value wanted: GI% (SW-620) of entry COc1ccc(-c2nc3ccccc3s2)cc1OCC(=O)NN=C1C(=O)Nc2ccccc21 [Compound 9m]
Found: 29.93

* * *

Test system: OVCAR-4
assay-info: NCI 60 panel growth inhibition (SRB), ovarian cancer
Type: cell-based, human
test-context: OVCAR-4, 10 μM
Decision: GI% compared against 20%; not below it gives satisfied, below it gives not satisfied.

{"compound": "COc1ccc2c(c1)C(=NNC(=O)COc1cc(-c3nc4ccccc4s3)ccc1OC)C(=O)N2 [Compound 9o]", "label-class": "satisfied"}
{"compound": "COc1cccc(-c2nc3ccccc3s2)c1OCC(=O)NN=C1C(=O)Nc2ccccc21 [Compound 9g]", "label-class": "satisfied"}
{"compound": "COc1cccc(-c2nc3ccccc3s2)c1OCC(=O)NN=C1C(=O)Nc2ccc(Br)cc21 [Compound 9l]", "label-class": "not satisfied"}
{"compound": "COc1cccc(-c2nc3ccccc3s2)c1OCC(=O)NN=C1C(=O)Nc2ccc([N+](=O)[O-])cc21 [Compound 9j]", "label-class": "not satisfied"}
{"compound": "O=C(COc1ccccc1-c1nc2ccccc2s1)NN=C1C(=O)Nc2ccc(Br)cc21 [Compound 9f]", "label-class": "satisfied"}
{"compound": "O=C(COc1ccccc1-c1nc2ccccc2s1)NN=C1C(=O)Nc2ccccc21 [Compound 9a]", "label-class": "not satisfied"}

Lookup: Record Cc1ccc2c(c1)C(=NNC(=O)COc1ccccc1-c1nc3ccccc3s1)C(=O)N2 [Compound 9b] ; criterion: GI% no lower than 20%. Met?
Found: satisfied

Lookup: Textbook exercise: given the entry COc1ccc2c(c1)C(=NNC(=O)COc1ccccc1-c1nc3ccccc3s1)C(=O)N2 [Compound 9c] , state whether its GI% is greater than or equal to 20%.
Found: satisfied

Lookup: Could you verify whether the entry CNC(=O)c1nn(C)c2c1C(C)(C)Cc1cnc(Nc3ccc(N4CCN(C)CC4)cc3)nc1-2 [Milciclib, reference compound] shows GI% of no less than 20%?
Found: satisfied

* * *

Test system: M14
assay-info: NCI 60 panel growth inhibition (SRB), melanoma
Assay type: cell-based, human
test-context: M14, 10 μM

{"compound": "O=C(COc1ccccc1-c1nc2ccccc2s1)NN=C1C(=O)Nc2ccccc21 [Compound 9a]", "GI%": "– (GI% < 5%)"}
{"compound": "COc1cccc(-c2nc3ccccc3s2)c1OCC(=O)NN=C1C(=O)Nc2ccccc21 [Compound 9g]", "GI%": "– (GI% < 5%)"}
{"compound": "COc1cccc(-c2nc3ccccc3s2)c1OCC(=O)NN=C1C(=O)Nc2ccc(Br)cc21 [Compound 9l]", "GI%": "– (GI% < 5%)"}

* * *

Test system: U251
assay-info: NCI 60 panel growth inhibition (SRB), CNS cancer
Type: cell-based, human
test-context: U251, 10 μM
Method: Screening of cytotoxic activity against a panel of sixty human tumor cell lines The selected compounds by NCI were evaluated for their anticancer activity in a two- stage process. […] Using the seven absorbance measurements [time zero, (Tz), control growth, (C), and test growth in the presence of drug at the five concentration levels (Ti)], the percentage growth is calculated at each of the drug concentrations levels. […] Three dose response parameters are calculated for each experimental agent. […]
reported-endpoint: GI%

Example cases with answers are listed next.
{"compound": "COc1ccc2c(c1)C(=NNC(=O)COc1ccccc1-c1nc3ccccc3s1)C(=O)N2 [Compound 9c]", "target-desc": "U251", "GI%": "– (GI% < 5%)"}
{"compound": "COc1cccc(-c2nc3ccccc3s2)c1OCC(=O)NN=C1C(=O)Nc2ccc(Br)cc21 [Compound 9l]", "target-desc": "U251", "GI%": "– (GI% < 5%)"}
{"compound": "COc1ccc2c(c1)C(=NNC(=O)COc1c(OC)cccc1-c1nc3ccccc3s1)C(=O)N2 [Compound 9i]", "target-desc": "U251", "GI%": "– (GI% < 5%)"}
{"compound": "O=C(COc1ccccc1-c1nc2ccccc2s1)NN=C1C(=O)Nc2ccccc21 [Compound 9a]", "target-desc": "U251", "GI%": "– (GI% < 5%)"}
{"compound": "COc1cccc(-c2nc3ccccc3s2)c1OCC(=O)NN=C1C(=O)Nc2ccc(Cl)cc21 [Compound 9k]", "target-desc": "U251", "GI%": "– (GI% < 5%)"}

Lookup: Given COc1cccc(-c2nc3ccccc3s2)c1OCC(=O)NN=C1C(=O)Nc2ccc([N+](=O)[O-])cc21 [Compound 9j] , state its recorded GI%.
Found: – (GI% < 5%)

Lookup: What GI% value was documented for this compound, O=C(COc1ccccc1-c1nc2ccccc2s1)NN=C1C(=O)Nc2ccc(Cl)cc21 [Compound 9e] ?
Found: – (GI% < 5%)

Lookup: // GI% lookup, key: COc1ccc(-c2nc3ccccc3s2)cc1OCC(=O)NN=C1C(=O)Nc2ccc(C)cc21 [Compound 9n]
Found: – (GI% < 5%)

* * *

Test system: SK-MEL-5
assay-info: NCI 60 panel growth inhibition (SRB), melanoma
Type: cell-based, human
test-context: SK-MEL-5, 10 μM
reported-endpoint: GI%

Known GI% results, listed for orientation:
{"molecule": "COc1ccc(-c2nc3ccccc3s2)cc1OCC(=O)NN=C1C(=O)Nc2ccccc21", "target-desc": "SK-MEL-5", "GI%": "– (GI% < 5%)"}
{"molecule": "COc1cccc(-c2nc3ccccc3s2)c1OCC(=O)NN=C1C(=O)Nc2ccc([N+](=O)[O-])cc21", "target-desc": "SK-MEL-5", "GI%": "24.59%"}
{"molecule": "COc1ccc2c(c1)C(=NNC(=O)COc1c(OC)cccc1-c1nc3ccccc3s1)C(=O)N2", "target-desc": "SK-MEL-5", "GI%": "51.82%"}
{"molecule": "Cc1ccc2c(c1)C(=NNC(=O)COc1ccccc1-c1nc3ccccc3s1)C(=O)N2", "target-desc": "SK-MEL-5", "GI%": "62.70%"}
{"molecule": "CNC(=O)c1nn(C)c2c1C(C)(C)Cc1cnc(Nc3ccc(N4CCN(C)CC4)cc3)nc1-2 [Milciclib, reference compound]", "target-desc": "SK-MEL-5", "GI%": "92.70%"}
{"molecule": "COc1ccc2c(c1)C(=NNC(=O)COc1cc(-c3nc4ccccc4s3)ccc1OC)C(=O)N2", "target-desc": "SK-MEL-5", "GI%": "24.21%"}
{"molecule": "COc1ccc(-c2nc3ccccc3s2)cc1OCC(=O)NN=C1C(=O)Nc2ccc(C)cc21", "target-desc": "SK-MEL-5", "GI%": "7.31%"}
{"molecule": "O=C(COc1ccccc1-c1nc2ccccc2s1)NN=C1C(=O)Nc2ccccc21", "target-desc": "SK-MEL-5", "GI%": "13.43%"}
{"molecule": "COc1cccc(-c2nc3ccccc3s2)c1OCC(=O)NN=C1C(=O)Nc2ccccc21", "target-desc": "SK-MEL-5", "GI%": "95.02%"}
{"molecule": "COc1ccc(-c2nc3ccccc3s2)cc1OCC(=O)NN=C1C(=O)Nc2ccc(Cl)cc21", "target-desc": "SK-MEL-5", "GI%": "12.80%"}

Lookup: Lab request: please report GI% under test system SK-MEL-5 for `COc1cccc(-c2nc3ccccc3s2)c1OCC(=O)NN=C1C(=O)Nc2ccc(Br)cc21`
Found: 19.70%

Lookup: I'm curious: which GI% was measured for `COc1ccc(-c2nc3ccccc3s2)cc1OCC(=O)NN=C1C(=O)Nc2ccc([N+](=O)[O-])cc21` tested on SK-MEL-5?
Found: 5.61%

Lookup: Give SK-MEL-5 GI% for `O=C(COc1ccccc1-c1nc2ccccc2s1)NN=C1C(=O)Nc2ccc(Br)cc21`
Found: 43.95%

Lookup: Query the reported GI% for SK-MEL-5; item: `COc1ccc(-c2nc3ccccc3s2)cc1OCC(=O)NN=C1C(=O)Nc2ccc(Br)cc21`
Found: – (GI% < 5%)

Lookup: Report GI% for `O=C(COc1ccccc1-c1nc2ccccc2s1)NN=C1C(=O)Nc2ccc(Cl)cc21` tested on SK-MEL-5.
Found: 5.89%

Lookup: State its GI% on SK-MEL-5: `COc1ccc2c(c1)C(=NNC(=O)COc1ccccc1-c1nc3ccccc3s1)C(=O)N2`
Found: 44.97%
